Biological target: pooled human IgG
Each entry below carries its recorded Enzyme Activity Endpoint Assay (purified): scIgG.
// units = ng/µL; emit number, no label

- protein: "PRT-162 (protein) MANQEIRYSEVTPYHVTSVWTKGVTPPANFTQGEDVFHAPYVANQGWYDITKTFNGKDDLLCGAATAGNMLHWWFDQNKDQIKRYLEEHPEKQKINFNGEQMFDVKEAIDTKNSQTNSELFNYFKEKAFPYLSTKHLGVFPDHVIDMFINGYRLSLTNHGPTPVKEGSKDPRGGIFDAVFTRGDQSKLLTSRHDFKEKNLKEISDLIKKELTEGKALGLSHTYANVRINHVINLWGADFDSNGNLKAIYVTDSDSNASIGMKKYFVGVNSAGKVAISAKEIKEDNIGAQVLGLFTLSTGQDSWNQTN"
  reading.unit: "ng/µL"
  assay.result: 0
- protein: "PRT-81 (protein) MANQEIRYSEVTPSHVTSVWTKGVTPPADFTQGEDVFHAPYVANQGWYDITKTFNGKDNLLCGAATAGNMLHWWFDQNKEQIENYLKKHPEKQKIMFGDQELLDVRKVINTKDSQTNSALFNYFRDKAFPNLSARRLGVMPDLVLDMFINGYYLNLTKTQTTDVNRTYQTKDKRGGIFDAVFTRGDQSKLLTSRHDFKEKTLKEISDLIKQELTEGKALGLSHTYANVRINHVINLWGADFDSNGNLKAIYVTDSDSNASIGMKKYFVGVNSAGKVAISAKEITEDNIGAQVLGLFTLSTGKDQWNQTN"
  reading.unit: "ng/µL"
  assay.result: 56
- protein: "PRT-228 (protein) MEVVEVWPYGQNPNGKTEILSQTEDSESLQRLRDIEDFQAEKKMQNVVYTKWLDGVDVKDHDFRKIVDGNIAYYATPLLNGRGFYDINKDFNRDSDKCAAAVAANMFHYWLDINRDNVDRFLRQNPEKHGIIELPDGQLKLSDFLNTYESDHGYRDKSKLFDFISNNFNGPVWTDKLLDNYINGYAYNYKYGRTIEDPTKNTSKINFFKEVFNEKILTNNHSIRNQNEFSDLLSEALYTGKAIGLSYGPAGLRHSLGHIISVWGADLDADGNVVAIYVTDSDDKKLTIGDERVGLKRYKISTDDENRLRLTAYEETHNTGGQIRGLWTLDTGKYAWADYFDKTEQTGTDQAEQLEHHHHHH"
  reading.unit: "ng/µL"
  assay.result: 557

From here, focus on the item given below.
Entry PRT-131 (protein) MRNATEAYAKEVPHQITSVWTKGVTPLTPEQFRYNNEDVIHAPYLAHQGWYDITKAFNGKDNLLCGAATAGNMLHWWFDQNKTEIEAYLKKHPEKQKIIFNNQELFDLKAAIDTKDSQTNSQLFNYFRDKAFPNLSARQLGVMPDLVLDMFINGYYLNVFKTQSTDVNRPYQDKDKRGGIFDAVFTRGDQTTLLTARHDLKNKGLNEISTIIKQELTEGRALALSHTYANVSISHVINLWGADFNAEGNLEAIYVTDSDANASIGMKKYFVGINAHGKVAISAKKIEGENIGAQVLGLFTLSSGKDIWQKLS ; Enzyme Activity Endpoint Assay (purified): scIgG = 0

Origin of measurements: patent US20250027068
